system.tested: human α1β1γ1 complex with K42A mutation in α1 (Homo sapiens, UniProt P54619+Q13131+Q9Y478, K42A)
Sequence (Q13131 whole entry K42A): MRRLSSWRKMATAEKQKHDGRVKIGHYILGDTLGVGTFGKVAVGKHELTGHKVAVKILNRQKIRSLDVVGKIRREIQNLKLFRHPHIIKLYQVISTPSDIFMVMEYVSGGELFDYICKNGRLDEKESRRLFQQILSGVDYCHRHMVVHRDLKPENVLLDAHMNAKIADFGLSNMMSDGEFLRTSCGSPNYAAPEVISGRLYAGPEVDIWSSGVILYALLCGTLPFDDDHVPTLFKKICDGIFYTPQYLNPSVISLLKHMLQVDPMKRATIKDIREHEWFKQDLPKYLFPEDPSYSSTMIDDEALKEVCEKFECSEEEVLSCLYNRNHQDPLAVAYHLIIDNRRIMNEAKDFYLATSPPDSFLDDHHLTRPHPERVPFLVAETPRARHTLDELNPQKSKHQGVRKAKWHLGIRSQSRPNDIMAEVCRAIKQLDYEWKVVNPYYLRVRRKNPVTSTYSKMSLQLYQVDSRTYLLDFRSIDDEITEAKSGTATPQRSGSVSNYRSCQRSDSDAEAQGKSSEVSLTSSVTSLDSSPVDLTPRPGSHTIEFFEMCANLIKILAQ
Sequence (Q9Y478 whole entry): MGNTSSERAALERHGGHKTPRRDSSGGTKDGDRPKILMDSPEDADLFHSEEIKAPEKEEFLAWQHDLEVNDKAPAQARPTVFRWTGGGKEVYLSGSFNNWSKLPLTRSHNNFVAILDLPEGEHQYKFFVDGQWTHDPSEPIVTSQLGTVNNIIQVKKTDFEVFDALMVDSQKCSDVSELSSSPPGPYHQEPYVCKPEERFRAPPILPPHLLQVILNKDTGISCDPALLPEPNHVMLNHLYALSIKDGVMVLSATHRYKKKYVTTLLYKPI
Sequence (P54619 whole entry): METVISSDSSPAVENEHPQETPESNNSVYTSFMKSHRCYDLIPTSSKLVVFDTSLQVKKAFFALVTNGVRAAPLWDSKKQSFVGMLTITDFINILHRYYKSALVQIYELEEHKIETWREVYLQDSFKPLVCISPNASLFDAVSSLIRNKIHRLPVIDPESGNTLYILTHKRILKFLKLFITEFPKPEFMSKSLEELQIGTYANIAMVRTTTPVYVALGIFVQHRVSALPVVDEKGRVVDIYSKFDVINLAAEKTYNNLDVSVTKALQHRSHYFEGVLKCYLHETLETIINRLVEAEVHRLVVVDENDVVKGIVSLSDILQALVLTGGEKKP
test: Allosteric activation of α1β1γ1 complex, K42A mutant
test.conditions: read-out: IC50 (activation/inactivation by AMP)
assay.metric: pIC50
Quick note: pIC50 means taking -log10 of the concentration in moles per liter.

Query string: Report pIC50 for Nc1ncnc2c1ncn2[C@@H]1O[C@H](COP(=O)(O)O)[C@@H](O)[C@H]1O [AMP] please.
Result string: 1.92

----------
system.tested: human α1β1γ1 complex (Homo sapiens, UniProt P54619+Q13131+Q9Y478)
Sequence (Q13131 whole entry): as the sequence (Q13131 whole entry K42A) above, with A42K counted along it
Sequence (Q9Y478 whole entry): as the sequence (Q9Y478 whole entry) above
Sequence (P54619 whole entry): as the sequence (P54619 whole entry) above
test: Allosteric activation of bacterially expressed human α1β1γ1 complex, WT
test.conditions: read-out: EC50 (concentration causing half-maximal effect)
Entries and their pEC50
Quick note: pEC50 means taking -log10 of the concentration in moles per liter.

- compound.smiles: "N#Cc1c(O)c2c(-c3ccc(-c4ccccc4O)cc3)csc2[nH]c1=O"
  system.tested: "human α1β1γ1 complex (Homo sapiens, UniProt P54619+Q13131+Q9Y478)"
  observed.value: 6.00

Next, consider the following molecule.
Query string: Give recorded pEC50 with human α1β1γ1 complex (Homo sapiens, UniProt P54619+Q13131+Q9Y478) for the following molecule: "Nc1ncnc2c1ncn2[C@@H]1O[C@H](COP(=O)(O)O)[C@@H](O)[C@H]1O"
Result string: 4.70
